System: staining fungi (macerated fungal blend)
METHOD: Staining fungi coverage in inoculated stem wound of red oak seedlings, greenhouse (Table 6)
REPORTED_CONDITIONS: fungicide + buffered amine oxide, Buffer System 3, amine oxide 1218, 200:1; PPM: Thiabendazole/Fludioxonil/Azoxystrobin 160, Chlorothalonil 1235, Propiconazole 107, Mancozeb 1097, Vinclozolin 122, Mefenoxam 20
RESULT_TYPE: Percent of Staining Fungi Coverage Average (%) in Stem Wound of Red Oak Seedlings (Day 28)
Quick note: give the figure in %, leave out the unit.

Please review the following examples before continuing.
{"COMPOUND": "COCC(=O)N(c1c(C)cccc1C)[C@H](C)C(=O)OC", "REPORTED": 21}
{"COMPOUND": "N#Cc1c(Cl)c(Cl)c(Cl)c(C#N)c1Cl", "REPORTED": 33}
{"COMPOUND": "CCCC1COC(Cn2cncn2)(c2ccc(Cl)cc2Cl)O1 (stereo not shown)", "REPORTED": 44}

The recorded Percent of Staining Fungi Coverage Average (%) in Stem Wound of Red Oak Seedlings (Day 28) for entry C=CC1(C)OC(=O)N(c2cc(Cl)cc(Cl)c2)C1=O (stereo not shown) equals 38
